Each record here notes measured normalized RNA/DNA level with ligand (log10).
B1: library; a variant is named by its letters at N, in order (parent)
chain: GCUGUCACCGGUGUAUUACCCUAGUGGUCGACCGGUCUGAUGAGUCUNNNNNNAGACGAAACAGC

Variants of: B1
Assay: normalized RNA/DNA level with ligand (relative to sTRSVctl = 100) (log10 (% of sTRSVctl)); ligand: hypoxanthine (xanthine aptamer); higher = less ribozyme self-cleavage, higher mRNA level
Settings: ligand concentration (+) RNA-Seq: 5 mM, HEK293T, reporter: mCherry (pCS4076), ligand present: yes
Reply with the value as a number alone.

What does the data say about its normalized RNA/DNA level with ligand (log10)? Entry: "GAGUAG" 1.57

What does the data say about its normalized RNA/DNA level with ligand (log10)? Entry: "ACGUAG" 1.61

Next:
What does the data say about its normalized RNA/DNA level with ligand (log10)? Entry: "CGAGUC" 1.96

What does the data say about its normalized RNA/DNA level with ligand (log10)? Entry: "AGUGUC" 1.98

What does the data say about its normalized RNA/DNA level with ligand (log10)? Entry: "GGAUGC" 1.85

What does the data say about its normalized RNA/DNA level with ligand (log10)? Entry: "GCGCUC" 1.92

What does the data say about its normalized RNA/DNA level with ligand (log10)? Entry: "CGCUCA" 2.01

What does the data say about its normalized RNA/DNA level with ligand (log10)? Entry: "GGACCC" 1.96

What does the data say about its normalized RNA/DNA level with ligand (log10)? Entry: "GUCUUG" 1.9

What does the data say about its normalized RNA/DNA level with ligand (log10)? Entry: "CCAAGU" 1.94

What does the data say about its normalized RNA/DNA level with ligand (log10)? Entry: "CCUUUU" 1.97

What does the data say about its normalized RNA/DNA level with ligand (log10)? Entry: "UAGUUU" 1.92

What does the data say about its normalized RNA/DNA level with ligand (log10)? Entry: "UACCCA" 1.96

What does the data say about its normalized RNA/DNA level with ligand (log10)? Entry: "CUUGAG" 1.87

What does the data say about its normalized RNA/DNA level with ligand (log10)? Entry: "UCCUGU" 1.93

What does the data say about its normalized RNA/DNA level with ligand (log10)? Entry: "GUCUCU" 1.97

What does the data say about its normalized RNA/DNA level with ligand (log10)? Entry: "GUCGGA" 1.98

What does the data say about its normalized RNA/DNA level with ligand (log10)? Entry: "AGCUGA" 1.91
